assayOverview: gradient 5% acetonitrile 3 min, to 50% in 2 min, to 85% in 15 min, held 3 min, 100 µL/min
runParameters: column: Zorbax Extend-C18 2.1 x 50 mm; eluents: water / acetonitrile, 0.1% formic acid
This listing pairs compounds with measured RP-LC retention time.
measure: RP-LC retention time (s)

| structureNotation | measure | quantitativeResult |
| --- | --- | --- |
| CCOC(=O)C1CCN(c2cc(-n3nc(C)cc3C)ncn2)CC1 | RP-LC retention time | 1000 |
| CC(C)(C)c1ccc2oc(CN3CCN(C(=O)NCc4ccccc4)CC3)nc2c1 | RP-LC retention time | 842 |
| Cc1nn(CC(=O)N2CCCC2)c(=O)c2c(-n3cccc3)n(-c3cccc(F)c3)nc12 | RP-LC retention time | 876 |
| CCn1c(C)c(-c2nc(C3CC3)no2)c(S(=O)(=O)N2CCC(C)CC2)c1C | RP-LC retention time | 904 |
| CCCn1cc(C(=O)NCc2ccccc2C)c(S(=O)(=O)N2CCC(C)CC2)n1 | RP-LC retention time | 1110 |
| CCN(CC)CCCNC(=O)c1cc(C)nc2ccc(Br)cc12 | RP-LC retention time | 585 |
| Cc1nc(CCNC(=O)C2CCC2)no1 | RP-LC retention time | 608 |
| O=c1c2cc(-c3ccc(Cl)cc3)nn2ccn1Cc1nc(-c2ccccn2)no1 | RP-LC retention time | 894 |
| CC(C)c1noc(-c2cc(=O)n(CC(=O)Nc3ccccc3F)c3ccccc23)n1 | RP-LC retention time | 984 |
| Cc1cc2c(c(=O)n(-c3ccccc3)c(=O)n2CC(=O)Nc2cccc(C(F)(F)F)c2)n1C | RP-LC retention time | 904 |

###

assayOverview: gradient 5% acetonitrile 3 min, to 50% in 2 min, to 85% in 15 min, held 3 min, 100 µL/min
runParameters: column: Zorbax Extend-C18 2.1 x 50 mm; eluents: water / acetonitrile, 0.1% formic acid
measure: RP-LC retention time

| molecule | measure | result |
| --- | --- | --- |
| COC(=O)c1cc(C)nc2c1c(=O)n(Cc1ccccc1F)c(=O)n2Cc1ccco1 | RP-LC retention time | 1070 s |
| COC(=O)c1cn(CC(=O)NCc2cc3c(cc2OC)OCCCO3)c2ccccc12 | RP-LC retention time | 897 s |
| CCNc1cc(N2CCCC(CCC(=O)Nc3ccc4c(c3)OCCO4)C2)ncn1 (stereo not given) | RP-LC retention time | 674 s |
| Cc1cc(N2CCCCC2C)n2nc(-c3ccccc3C)nc2n1 (stereo not given) | RP-LC retention time | 991 s |
| CC1=NS(=O)(=O)N(Cc2ccccc2)C=C1C(=O)OCc1nc(-c2ccc(C)cc2)no1 | RP-LC retention time | 1110 s |
| CC(C)(C)c1ccc(C(=O)NCc2cnn3ccccc23)cc1 | RP-LC retention time | 806 s |
| CCn1cc(C)c(C(=O)O)c1CC(=O)NCCN1CCc2ccccc2C1 | RP-LC retention time | 629 s |
| CC(C)C(=O)Nc1ccc(-n2cnc(C(=O)NCc3ccc(F)cc3F)c2)nc1 | RP-LC retention time | 773 s |
| COc1ccc(S(=O)(=O)CCc2noc(C(=O)NCc3cc(OC)c(OC)c(OC)c3)n2)cc1 | RP-LC retention time | 790 s |
| Cc1nnc(C2CCCCCN2C(=O)c2ccoc2C)o1 (stereo not given) | RP-LC retention time | 699 s |
| CN(Cc1cccn1C)C(=O)NC(C)(C)C | RP-LC retention time | 805 s |
| Cc1cc(C)cc(NC(=O)CN2CCC(C(=O)Nc3ccc(C(N)=O)cc3)CC2)c1 | RP-LC retention time | 571 s |
| CC(Cc1ccco1)NC(=O)c1ccc2c(c1)nc1n2CCCCC1 (stereo not given) | RP-LC retention time | 620 s |
| Cc1sc2ccn(C)c(=O)c2c1C(=O)NC1CCN(Cc2ccccc2)CC1 | RP-LC retention time | 1030 s |
| N#Cc1cccc2sc(C(=O)N=C(N)N)cc12 | RP-LC retention time | 625 s |
| COc1cccc(C2Cn3nnc(-c4nc(-c5ccc(Br)cc5)no4)c3CO2)c1 (stereo not given) | RP-LC retention time | 1240 s |
| CCCn1cc(CCNC(=O)Nc2ccc(C)c(Cl)c2)c2cccnc21 | RP-LC retention time | 884 s |
| O=C(CCc1nnn2c1CN(C(=O)C1CCCC1)CC2)N1CCOCC1 | RP-LC retention time | 616 s |
| O=C(c1sc2ncccc2c1-n1cccc1)N1CCN(Cc2ccccc2)CC1 | RP-LC retention time | 648 s |
| COc1ccc(OC)c(CNC(=O)c2cn3c(n2)CCCC3)c1 | RP-LC retention time | 587 s |
